ASSAY EXPLANATION: chemical genetic growth profiling, strain panel (AID 1159580);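 further: tested at 20 µM; growth read once vehicle control cultures reached saturation at 30 °C; lower values mean less growth of the strain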
SETUP CONDITIONS: S. cerevisiae deletion strains, growth OD, locus YGR078C, strain PAC10, active compounds read low
The campaign covered roughly 5,500 compounds. About 2,000 (36%) were called active. Inconclusive results (about 18%) are left out. The list shows a part of the results.
Could you please mark Criterion met for values of normalized growth below 1 and Criterion not met for values at or above it?

[[record]]
compound = "COc1ccccc1-c1cc(=O)c2c(OC)cccc2o1"
group_label = "Criterion met"

[[record]]
compound = "CCOC(=O)c1c(N=Cc2cc(Br)c(Br)cc2O)sc2c1CCCC2"
group_label = "Criterion met"

[[record]]
compound = "CC(C)(O)C#Cc1ccc(/C=N\\O)cc1"
group_label = "Criterion not met"

[[record]]
compound = "O=C(CC(Nc1ccccc1)c1ccccc1)C1CC1 (centres undefined)"
group_label = "Criterion not met"

[[record]]
compound = "C=CCN1CC[C@]23c4c5ccc(O)c4OC2C(=O)CC[C@@]3(O)[C@H]1C5 (some centres undefined)"
group_label = "Criterion not met"

[[record]]
compound = "Fc1cccc(Cl)c1Cn1nnc(N2CCCCC2)n1"
group_label = "Criterion met"

[[record]]
compound = "CC1=C(/C=C/C(C)=C/C=C/C(C)=C/CO)C(C)(C)CCC1"
group_label = "Criterion met"

